inhibition at 20 µM by entry:
target: Rho-A (Homo sapiens, UniProt P61586); test: Ras GTP binding domain inhibition assay (labeled-GTP competition, cell-free); parameters: made in house; conditions: without SOS, read-out: Rho-A: % inh.
Sequence (P61586 whole entry, the tested form may be a part): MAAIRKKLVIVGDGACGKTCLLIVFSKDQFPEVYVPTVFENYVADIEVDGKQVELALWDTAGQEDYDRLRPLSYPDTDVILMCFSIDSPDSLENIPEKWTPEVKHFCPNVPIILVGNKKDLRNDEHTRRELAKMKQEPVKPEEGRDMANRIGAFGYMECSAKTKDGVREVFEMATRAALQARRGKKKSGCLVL

Would you please look over these solved cases?
compound=COCCn1cnc(-c2nc(O)c3scc(-c4ccccn4)c3n2)c1 system="Rho-A (Homo sapiens, UniProt P61586)" property_name="inhibition at 20 µM" experimental_result="51 to 75%"
compound=Cc1c(-c2ccn(C(C)C)n2)sc2nc(-c3nccn3C)nc(NCc3ncc[nH]3)c12 system="Rho-A (Homo sapiens, UniProt P61586)" property_name="inhibition at 20 µM" experimental_result="51 to 75%"
compound=CO[C@@H]1CC[C@H](Nc2nc(-c3nccn3C)nc3sc(-c4ccn(C(C)C)n4)c(C)c23)C1 system="Rho-A (Homo sapiens, UniProt P61586)" property_name="inhibition at 20 µM" experimental_result="51 to 75%"
compound=COCCn1ccnc1-c1nc(N[C@H]2C[C@@H](OC)C2)c2c(-c3ccccc3)c(-c3ccn(C)n3)sc2n1 system="Rho-A (Homo sapiens, UniProt P61586)" property_name="inhibition at 20 µM" experimental_result="76 to 100%"
compound="CO[C@H]1CC[C@@H](Nc2nc(C(=O)Nc3ccccn3)nc3sccc23)C1 (racemic)" system="Rho-A (Homo sapiens, UniProt P61586)" property_name="inhibition at 20 µM" experimental_result=0%

Check the records and state inhibition at 20 µM for "CO[C@@H]1CC[C@H](Nc2nc(-c3nccn3C)nc3sc(-c4ccn(C(C)C)n4)c(-c4ccccc4)c23)C1"
26 to 50%

Consider the compound "Cn1ccnc1-c1nc(O)c2scc(-c3ncccc3F)c2n1" . State its measured inhibition at 20 µM.
76 to 100%

Give me measured inhibition at 20 µM, please, for this compound: "COCCn1ccnc1-c1nc(N[C@H]2C[C@@H](OC)C2)c2ccsc2n1"
76 to 100%
